Test system: Target C mRNA
Experiment: Splicing RT-qPCR gene panel, Target C canonical junction (CJ) mRNA
Assay type: cell-based
Settings: Homo sapiens; Table 8; larger gene panel, decrease in CJ mRNA levels
pIC50: −log10 of the molar value.
parameter: pIC50

// below: answered molecules
{"columns": ["molecule", "measured_result"],
 "data": [
  ["Cc1cn2nc(-c3nc4sc(C5=CCNCC5)cc4s3)cc(C)c2n1", "5.00 to 6.00"],
  ["Cn1cc2cc(-c3cc4cn(C5CCOCC5)nc4s3)cc(F)c2n1", "< 5.00"],
  ["Cc1nc2c(F)cc(-n3cc4cc(C5CCNCC5)sc4n3)cc2o1", "6.00 to 7.00"],
  ["Cc1cn2nc(-n3cc4sc(C5CCNCC5)cc4n3)cc(C)c2n1", "> 7.00"],
  ["Cc1cc(-c2cc3cn([C@@H]4CCNC[C@@H]4F)nc3s2)cc2cn(C)nc12 (single isomer, unassigned)", "6.00 to 7.00"],
  ["Cn1cc2cc(-c3nc4sc(C5CCNCC5)cn4n3)cc(F)c2n1", "< 5.00"]
]}

Take each entry in turn and give its pIC50.
1. CN1CCC(N(C)c2cc3sc(-c4cc(F)c5nn(C)cc5c4)nc3s2)CC1
2. C[C@@H]1C[C@@H](c2cc3sc(-c4cc(F)c5nn(C)cc5c4)nc3s2)CCN1 (single isomer, unassigned) [Compound 193]
3. Cc1cn2cc(-c3cc4cn(C5CCNCC5)nc4s3)ncc2n1

Ans.
["< 5.00", "> 7.00", "5.00 to 6.00"]

* * *

Tested on: Target C mRNA
Test: Splicing RT-qPCR gene panel, Target C canonical junction (CJ) mRNA
Assay type: cell-based
Conditions: Homo sapiens; Table 8; larger gene panel, decrease in CJ mRNA levels
Counter-ions that a name gives are not always drawn.
I'd appreciate it if you could supply IC50 values for the items below.

Below: 3 compounds and their reported IC50.
{"columns": ["compound", "measured_on", "measured_result"],
 "data": [
  ["Cc1cn2cc(-n3cc4sc(C5CCNCC5)cc4n3)ncc2n1", "Target C mRNA", "1 to 10 µM"],
  ["Cc1cc(-c2cc3cn(C4CCNCC4)nc3s2)cc2cn(C)nc12", "Target C mRNA", "0.1 to 1 µM"],
  ["Cc1cn2cc(-c3nc4sc(C5CCNCC5)cc4s3)cc(F)c2n1 [Compound 130, hydrochloride]", "Target C mRNA", "< 0.1 µM"]
]}

# batch size: 4; output IC50 per entry
1. Cc1cn2nc(-n3cc4cc(C5CCNCC5)sc4n3)nc2c(C)n1
2. Cc1cn2nc(-c3nc4sc(C5CCNCC5)cc4s3)cc2c(C)n1
3. COc1c(-c2nc3cn(C4CCNCC4)nc3s2)cc2cn(C)nc2c1C
4. Cn1cc2cc(-c3cc4cn([C@@H]5CCNC[C@H]5F)nc4s3)cc(F)c2n1

Ans.
1 to 10 µM
0.1 to 1 µM
1 to 10 µM
0.1 to 1 µM

List the reported IC50 of each compound below.
1. Cc1cn2cc(-c3nc4sc(C5CCNCC5)cc4s3)nc(C)c2n1
2. Cc1cn2nc(-c3nc4sc(C5CCOCC5)cc4s3)cc(C)c2n1
3. Cc1cc(-c2nc3cn(C4CCNCC4)nc3s2)cc2cn(C)nc12
4. Cc1nc2c(F)cc(-n3cc4sc(C5CCNCC5)cc4n3)cc2s1
5. c1n[nH]cc1-n1cc2sc(C3CCNCC3)cc2n1
6. Cn1cc2cc(-n3cc4nc(C5CCNCC5)sc4n3)cc(F)c2n1

Ans.
1. 0.1 to 1 µM
2. 1 to 10 µM
3. 0.1 to 1 µM
4. > 10 µM
5. > 10 µM
6. > 10 µM

# return IC50 for each item in the list
1. Cc1cn2cc(-c3nc4cn(C5CCNCC5)nc4s3)nc(C)c2n1
2. Cc1cn2nc(-n3cc4cc(C5CCNCC5)sc4n3)cc2c(C)n1
3. Cn1cc2cc(-c3cc4cn(C5CCNCC5)nc4s3)ccc2n1
4. Cn1cc2cc(-c3cc4cn(C5CCNCC5)nc4s3)c(O)c(F)c2n1
5. Cn1cc2cc(-c3nc4sc(N5CCN6CCCC6C5)cc4s3)cc(F)c2n1 (centres unmarked)
6. Cn1cc2cc(-c3cc4cn(C5=CCOCC5)nc4s3)cc(F)c2n1
7. CN1CCN(c2cc3sc(-c4cc(F)c5nn(C)cc5c4)nc3s2)CC1

Ans.
> 10 µM
1 to 10 µM
1 to 10 µM
0.1 to 1 µM
> 10 µM
> 10 µM
1 to 10 µM
